This listing pairs compounds with measured growth.
- Test system: M14 melanoma
- experiment notes: NCI-60 one-dose screen, 48 h (100 = growth as untreated, 0 = no growth, -100 = all killed)
- test settings: 10 µM unless noted
The panel holds about 83,000 compounds, 20% with a hit somewhere; the sample as a whole holds those more often. The source made the active and inactive calls. Rule for the calls: active = growth percent below 10; inactive = the rest.

Previously resolved entries follow.
>>> result("COc1ccc(/C(=C/c2ccc3ccccc3c2)c2nn[nH]n2)cc1OC")
"10.9% (inactive)"
>>> result("CC1(C)CC(=O)C(c2c(-c3ccccc3)[nH]c3[nH]c(=S)[nH]c(=O)c23)=C(O)C1")
"107% (inactive)"
>>> result("CCCNc1nc(SC)nc(-c2cccc(N)c2)c1C#N")
"101% (inactive)"
>>> result("CCC(=O)Oc1ccc(/C(=C(\\C)c2ccccc2)c2ccc(OCCN(CC)CC)cc2)cc1")
"69% (inactive)"
>>> result("COc1ccc(/C=C/C(=O)c2ccc(NC(=O)c3cc4cc5ccccc5nc4s3)cc2)cc1OC")
"98.9% (inactive)"
>>> result("CC(C)(C)n1cc(-c2ccnc(NCCCNS(=O)(=O)c3cccc4ccccc34)c2)c(-c2cccc(O)c2)n1")
"2.67% (active)"
>>> result("CCN(CC)CCCNc1cccc2c(SCc3ccccc3)ccnc12")
"-47.4% (active)"
>>> result("CCCCCC(=O)Oc1ccc(/C(=C(\\C)c2ccccc2)c2ccc(OCCN(CC)CC)cc2)cc1")
"8.98% (active)"
>>> result("CN[C@@]12CC3(C=CC(=O)C=C3)O[C@]1(Cc1ccc(OC)cc1)N(C)C(=O)N2")
"63% (inactive)"
>>> result("O=c1c2cccc3c(NC4CCCCC4)ccc(c32)c2nc3ccccc3n12")
"86.7% (inactive)"

Recorded growth (compound `COc1ccc(CN2C(=O)/C(=C\c3cc(OC)c(OC)c(OC)c3)c3cc(OC)ccc32)cc1` ): -28% (active)

Recorded growth (compound `CS(=O)(=O)c1ccc(-c2cnc3ccc(-c4cccc(S(C)(=O)=O)c4)nn23)cc1` ): 42.8% (inactive)

Recorded growth (compound ClC1=C2NC=NC2n2c(nnc2-c2ccc(Cl)cc2)N1 (stereo not given) ): 102% (inactive)

Recorded growth (compound `COc1cnc2c(c1)C(=O)c1c-2n(CCCN2CCN(C)CC2)c(=O)c2cc([N+](=O)[O-])ccc12` ): -85.2% (active)

Recorded growth (compound `c1ccc(Sc2ncnc3ccccc23)cc1` ): 71% (inactive)

Recorded growth (compound C=C1CCC2C3(C)COC(c4ccccc4Br)OC3CCC2(C)C1C/C=C1/C(=O)OCC1OC(C)=O (stereo not given) ): -36.7% (active)

Recorded growth (compound OC(c1cccc(C(F)(F)F)c1)c1cnccc1NC1CCCCCC1 (stereo not given) ): -21.8% (active)

Recorded growth (compound `O=C(O)c1c([N+](=O)[O-])cnc2ccccc12` ): 93.5% (inactive)

Recorded growth (compound `CCCCCCCCCCNC(=O)CCl` ): 83.9% (inactive)

Recorded growth (compound `CN(C)CC(=O)Nc1ccc(Cn2nnc3c2C(=O)c2nnn(Cc4ccc(NC(=O)CN(C)C)cc4)c2C3=O)cc1` ): -89.4% (active)
